target: second bromodomain of BRD4 (Homo sapiens (Human), UniProt O60885); assay: Bromoscan binding assay BRD4 (2); conditions: geometric mean where multiple measurements have been made
This listing pairs compounds with measured Kd.
Measured Property: Kd (nM)

{"Compound": "COc1cc(NC(=O)c2cc3c(nc2N(C)CC2CC2)COC3)cc2c(C)cc(=O)[nH]c12", "Tested System": "second bromodomain of BRD4 (Homo sapiens (Human), UniProt O60885)", "Numeric Result": 3100}
{"Compound": "COc1cc(NC(=O)c2cc3c(nc2C2=CCOCC2)COC3)cc2c(C)cc(=O)[nH]c12", "Tested System": "second bromodomain of BRD4 (Homo sapiens (Human), UniProt O60885)", "Numeric Result": 2600}
{"Compound": "COc1cc(NC(=O)c2cc3c(nc2N2CCOCC2)CN(C(C)C)C3)cc2c(C)cc(=O)[nH]c12", "Tested System": "second bromodomain of BRD4 (Homo sapiens (Human), UniProt O60885)", "Numeric Result": 600}
{"Compound": "COc1cc(NC(=O)c2cc3c(nc2N2C[C@H](F)[C@@H](F)C2)COC3)cc2c(C)cc(=O)[nH]c12 (racemic)", "Tested System": "second bromodomain of BRD4 (Homo sapiens (Human), UniProt O60885)", "Numeric Result": 400}

###

Target: first bromodomain of BRD4 (Homo sapiens (Human), UniProt O60885)
Experiment: Bromoscan binding assay BRD4 (1)
Conditions: Bromoscan; geometric mean where multiple measurements have been made
Experimental: Compounds were assayed for binding affinity using bromoscan assays and a phosphodiesterase three assay. Bromoscan assays were run by DiscoveRx Corporation. […] The bromodomain concentration in the eluates was measured by qPCR (quantitative real-time polymerase chain reaction). Binding constants (Kds) were calculated with a standard dose-response curve using the Hill equation: Response=Blackground+((Signal-Background)/(1+Kd^Hill Slope/Dose^Hill Slope)). […]
pKd: −log10 of the molar value.
This listing pairs compounds with measured pKd.
Measured Property: pKd

{"Compound": "CCN(c1nc2c(cc1C(=O)Nc1cc(OC)c3[nH]c(=O)cc(C)c3c1)COC2)C(C)C", "Numeric Result": 7.48}
{"Compound": "CNCCOc1cc(NC(=O)c2cc3c(nc2N2CCOCC2)COC3)cc2c(C)cc(=O)[nH]c12", "Numeric Result": 7.70}
{"Compound": "COc1cc(NC(=O)c2cc3c(nc2N2CCOCC2)CN(C2COC2)C3)cc2c(C)cc(=O)[nH]c12", "Numeric Result": 7.89}
{"Compound": "CCOc1cc(NC(=O)c2cc3c(nc2N2CCOCC2)COC3)cc2c(C)cc(=O)[nH]c12", "Numeric Result": 7.06}
{"Compound": "COc1cc(NC(=O)c2cc3c(nc2N2C[C@H](F)[C@@H](F)C2)COC3)cc2c(C)cc(=O)[nH]c12 (racemic)", "Numeric Result": 7.74}
{"Compound": "COc1cc(NC(=O)c2cc3c(nc2N(C)C)COC3)cc2c(C)cc(=O)[nH]c12", "Numeric Result": 6.92}
{"Compound": "COc1cc(NC(=O)c2cc3c(nc2N2CCOCC2)CO[C@@H]3C)cc2c(C)cc(=O)[nH]c12", "Numeric Result": 7.85}
{"Compound": "COc1cc(NC(=O)c2cc3c(nc2N2CC[C@@H](F)C2)COC3)cc2c(C)cc(=O)[nH]c12", "Numeric Result": 7.96}
{"Compound": "COc1c(F)c(NC(=O)c2cc3c(nc2N2CCOCC2)COC3)cc2c(C)cc(=O)[nH]c12", "Numeric Result": 6.36}
{"Compound": "Cc1cc(=O)[nH]c2c(C)cc(NC(=O)c3cc4c(nc3N3CCOCC3)COC4)cc12", "Numeric Result": 7.40}
{"Compound": "COc1cc(NC(=O)c2cc3c(nc2N2CCOCC2)CN(C)C3)cc2c(C)cc(=O)[nH]c12", "Numeric Result": 7.77}
{"Compound": "CCN1Cc2cc(C(=O)Nc3cc(OC)c4[nH]c(=O)cc(C)c4c3)c(N3CCOCC3)nc2C1", "Numeric Result": 7.60}
{"Compound": "Cc1c(NC(=O)c2cc3c(nc2N2CCOCC2)COC3)cc2c(C)cc(=O)[nH]c2c1C", "Numeric Result": 6.55}
{"Compound": "Cc1cc(=O)[nH]c2c(OCCO)cc(NC(=O)c3cc4c(nc3N3CCOCC3)COC4)cc12", "Numeric Result": 7.57}
{"Compound": "Cc1cc(=O)[nH]c2c3c(c(NC(=O)c4cc5c(nc4N4CCOCC4)COC5)cc12)CCO3", "Numeric Result": 7.25}
{"Compound": "COc1cc(NC(=O)c2cc3c(nc2N(C)CC2CC2)COC3)cc2c(C)cc(=O)[nH]c12", "Numeric Result": 7.29}
{"Compound": "COc1cc(NC(=O)c2cc3c(nc2N2C4CCC2COC4)COC3)cc2c(C)cc(=O)[nH]c12", "Numeric Result": 7.60}
{"Compound": "COc1cc(NC(=O)c2cc3c(nc2N2CCC[C@H]2C)COC3)cc2c(C)cc(=O)[nH]c12", "Numeric Result": 7.92}
{"Compound": "COc1cc(NC(=O)c2cc3c(nc2C2=CCOCC2)COC3)cc2c(C)cc(=O)[nH]c12", "Numeric Result": 7.19}
{"Compound": "COc1cc(NC(=O)c2cc3c(nc2N2CC[C@H](F)C2)COC3)cc2c(C)cc(=O)[nH]c12", "Numeric Result": 7.04}
{"Compound": "COc1cc(NC(=O)c2cc3c(nc2N2C4CCC2CC4)COC3)cc2c(C)cc(=O)[nH]c12", "Numeric Result": 8.15}
{"Compound": "COc1cc(NC(=O)c2cc3c(nc2N2C[C@@H](F)[C@@H](F)C2)COC3)cc2c(C)cc(=O)[nH]c12", "Numeric Result": 7.59}
{"Compound": "COc1cc(NC(=O)c2cc3c(nc2C2=CCCC2)COC3)cc2c(C)cc(=O)[nH]c12", "Numeric Result": 7.89}
{"Compound": "COc1cc(NC(=O)c2cc3c(nc2N2CCOCC2)CN(C(C)C)C3)cc2c(C)cc(=O)[nH]c12", "Numeric Result": 7.70}
{"Compound": "COc1cc(NC(=O)c2cc3c(nc2N2C[C@H]4CCO[C@H]4C2)COC3)cc2c(C)cc(=O)[nH]c12 (racemic)", "Numeric Result": 6.77}
{"Compound": "COc1cc(NC(=O)c2cc3c(nc2N2C4CCCC2CC4)COC3)cc2c(C)cc(=O)[nH]c12", "Numeric Result": 8.22}
{"Compound": "COc1cc2[nH]c(=O)cc(C)c2cc1NC(=O)c1cc2c(nc1N1CCOCC1)COC2", "Numeric Result": 7.59}
{"Compound": "Cc1cc(=O)[nH]c2c3c(c(NC(=O)c4cc5c(nc4N4CCOCC4)COC5)cc12)OCCO3", "Numeric Result": 7.37}
{"Compound": "Cc1cc2[nH]c(=O)cc(C)c2cc1NC(=O)c1cc2c(nc1N1CCOCC1)COC2", "Numeric Result": 7.05}
{"Compound": "COc1cc(NC(=O)c2cc3c(nc2N2CCOCC2)CNC3)cc2c(C)cc(=O)[nH]c12", "Numeric Result": 8.10}
{"Compound": "Cc1cc(=O)[nH]c2c(OC3CNC3)cc(NC(=O)c3cc4c(nc3N3CCOCC3)COC4)cc12", "Numeric Result": 7.46}

###

target: second bromodomain of BRD4 (Homo sapiens (Human), UniProt O60885); experiment: Bromoscan binding assay BRD4 (2); conditions: geometric mean where multiple measurements have been made

{"Compound": "COc1cc(NC(=O)c2cc3c(nc2N2CC4COCC4C2)COC3)cc2c(C)cc(=O)[nH]c12 (stereo not shown)", "Reading Unit": "nM", "Kd": 3400}
{"Compound": "COc1cc(NC(=O)c2cc3c(nc2N2CCC[C@H]2C)COC3)cc2c(C)cc(=O)[nH]c12", "Reading Unit": "nM", "Kd": 200}
{"Compound": "Cc1cc(=O)[nH]c2c(C)cc(NC(=O)c3cc4c(nc3N3CCOCC3)COC4)cc12", "Reading Unit": "nM", "Kd": 7100}
{"Compound": "COc1cc(NC(=O)c2cc3c(nc2N2CCOCC2)COC3C)cc2c(C)cc(=O)[nH]c12 (stereo not shown)", "Reading Unit": "nM", "Kd": 1000}

###

target: second bromodomain of BRD4 (Homo sapiens (Human)); experiment: Bromoscan binding assay BRD4 (2); settings: geometric mean where multiple measurements have been made
This listing pairs compounds with measured Kd.

{"Compound": "COc1cc(NC(=O)c2cc3c(nc2N2C4CCC2COC4)COC3)cc2c(C)cc(=O)[nH]c12", "Reading Unit": "nM", "Comparison Sign": "=", "Kd": 1100}
{"Compound": "COc1cc(NC(=O)c2cc3c(nc2N2C[C@@H](F)[C@@H](F)C2)COC3)cc2c(C)cc(=O)[nH]c12", "Reading Unit": "nM", "Comparison Sign": "=", "Kd": 400}
{"Compound": "COc1c(F)c(NC(=O)c2cc3c(nc2N2CCOCC2)COC3)cc2c(C)cc(=O)[nH]c12", "Reading Unit": "nM", "Comparison Sign": "=", "Kd": 7400}
{"Compound": "Cc1cc(=O)[nH]c2c(OC3CNC3)cc(NC(=O)c3cc4c(nc3N3CCOCC3)COC4)cc12", "Reading Unit": "nM", "Comparison Sign": ">", "Kd": 10000}
{"Compound": "COc1cc(NC(=O)c2cc3c(nc2N2CCC[C@@H]2C)COC3)cc2c(C)cc(=O)[nH]c12", "Reading Unit": "nM", "Comparison Sign": "=", "Kd": 4500}
{"Compound": "COc1cc(NC(=O)c2cc3c(nc2N(C)C)COC3)cc2c(C)cc(=O)[nH]c12", "Reading Unit": "nM", "Comparison Sign": "=", "Kd": 1300}
{"Compound": "COc1cc(NC(=O)c2cc3c(nc2N2CC[C@@H](F)C2)COC3)cc2c(C)cc(=O)[nH]c12", "Reading Unit": "nM", "Comparison Sign": "=", "Kd": 150}
{"Compound": "COc1cc(NC(=O)c2cc3c(nc2N2C[C@H]4CCO[C@H]4C2)COC3)cc2c(C)cc(=O)[nH]c12 (racemic)", "Reading Unit": "nM", "Comparison Sign": "=", "Kd": 3800}
{"Compound": "COc1cc(NC(=O)c2cc3c(nc2N2CC4CCOC4C2)COC3)cc2c(C)cc(=O)[nH]c12 (centres unmarked)", "Reading Unit": "nM", "Comparison Sign": "=", "Kd": 5600}
{"Compound": "COc1cc(NC(=O)c2cc3c(nc2N2CC[C@H](F)C2)COC3)cc2c(C)cc(=O)[nH]c12", "Reading Unit": "nM", "Comparison Sign": ">", "Kd": 10000}
{"Compound": "CCN(c1nc2c(cc1C(=O)Nc1cc(OC)c3[nH]c(=O)cc(C)c3c1)COC2)C(C)C", "Reading Unit": "nM", "Comparison Sign": "=", "Kd": 1000}
{"Compound": "COc1cc(NC(=O)c2cc3c(nc2N2CCOCC2)COC3)cc2c(C)cc(=O)[nH]c12", "Reading Unit": "nM", "Comparison Sign": "=", "Kd": 2200}
{"Compound": "Cc1c(NC(=O)c2cc3c(nc2N2CCOCC2)COC3)cc2c(C)cc(=O)[nH]c2c1C", "Reading Unit": "nM", "Comparison Sign": ">", "Kd": 10000}
{"Compound": "COc1cc(NC(=O)c2cc3c(nc2C2=CCCC2)COC3)cc2c(C)cc(=O)[nH]c12", "Reading Unit": "nM", "Comparison Sign": "=", "Kd": 800}
{"Compound": "CCN1Cc2cc(C(=O)Nc3cc(OC)c4[nH]c(=O)cc(C)c4c3)c(N3CCOCC3)nc2C1", "Reading Unit": "nM", "Comparison Sign": "=", "Kd": 800}
{"Compound": "COc1cc(NC(=O)c2cc3c(nc2N2CCOCC2)CCC3)cc2c(C)cc(=O)[nH]c12", "Reading Unit": "nM", "Comparison Sign": "=", "Kd": 1900}
{"Compound": "Cc1cc(=O)[nH]c2c3c(c(NC(=O)c4cc5c(nc4N4CCOCC4)COC5)cc12)CCO3", "Reading Unit": "nM", "Comparison Sign": ">", "Kd": 2500}
{"Compound": "COc1cc(NC(=O)c2cc3c(nc2N2C4CCC2CC4)COC3)cc2c(C)cc(=O)[nH]c12", "Reading Unit": "nM", "Comparison Sign": "=", "Kd": 300}
{"Compound": "COc1cc(NC(=O)c2cc3c(nc2N2C4CCCC2CC4)COC3)cc2c(C)cc(=O)[nH]c12", "Reading Unit": "nM", "Comparison Sign": "=", "Kd": 1400}
{"Compound": "COc1cc(NC(=O)c2cc3c(nc2N2CCOCC2)CN(C2COC2)C3)cc2c(C)cc(=O)[nH]c12", "Reading Unit": "nM", "Comparison Sign": "=", "Kd": 300}
{"Compound": "COc1cc2[nH]c(=O)cc(C)c2cc1NC(=O)c1cc2c(nc1N1CCOCC1)COC2", "Reading Unit": "nM", "Comparison Sign": "=", "Kd": 400}
{"Compound": "Cc1cc(=O)[nH]c2c3c(c(NC(=O)c4cc5c(nc4N4CCOCC4)COC5)cc12)OCCO3", "Reading Unit": "nM", "Comparison Sign": ">", "Kd": 10000}
{"Compound": "COc1cc(NC(=O)c2cc3c(nc2N2CCOCC2)CO[C@@H]3C)cc2c(C)cc(=O)[nH]c12", "Reading Unit": "nM", "Comparison Sign": "=", "Kd": 1200}
